B1: tRNA (parent)
chain: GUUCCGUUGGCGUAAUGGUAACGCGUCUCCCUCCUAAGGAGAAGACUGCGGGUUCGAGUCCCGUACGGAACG

Variants of: B1
TEST: yeast fitness, log relative to wild type (ln ratio); higher = fitter; tRNA-Arg(CCU), competitive growth, 37 C, 1 M NaCl
MEASUREMENT_LABEL: yeast fitness (ln)
Reply briefly: the number, and no unit.

{"MUTATION": "G1A U2C C46U C66A A70G C71U", "NUMBER": -0.124}
{"MUTATION": "U2C C27U C66A C71U", "NUMBER": -0.146}
{"MUTATION": "G1A G6A A69G A70U C71U", "NUMBER": -0.247}
{"MUTATION": "G6U C27U C46U C66U A69G A70U C71U", "NUMBER": -0.51}
{"MUTATION": "G1A U2C G6U C27U A43C C66A A69G A70G C71U", "NUMBER": -0.272}
{"MUTATION": "G1A U2C C27U A43C C46U C66A A70G", "NUMBER": -0.102}
{"MUTATION": "G1A U2G C27U A43C C46U C66A A69G A70G C71U", "NUMBER": -0.269}
{"MUTATION": "G1A G6A C46U A70U", "NUMBER": -0.103}

Form field yeast fitness (ln), entry G6A C27U A43C C66A A70G : -0.337

Form field yeast fitness (ln), entry G1A U2C G6A C27U A43C C46U C66U A69G A70U : -0.416

Form field yeast fitness (ln), entry U2G G6U C27U A43C C66U : -0.298

Values were extracted from the RNAGym collection of RNA variant scans (doi:10.1038/s41586-018-0170-7).
